Values were extracted from patent US7678918B2.

Tested on: TNF
Assay: Cytokine Induction in Human Cells: tumor necrosis factor (TNF) secreted by PBMCs, ELISA; further: call rule not given here
Format: cell-based
Settings: Dose Concentration 1.0 μM, 18 to 24 hours
VALUE_TYPE: TNF induction

Reference set (5 entries):
CCCCc1nc2c(N)nc3cccnc3c2n1CCCCNC(=O)c1cccc(Br)c1 = +
CCCCc1nc2c(N)nc3cccnc3c2n1CCNC(=O)c1cc(C(C)(C)C)c(O)c(C(C)(C)C)c1 = −
CCCCc1nc2c(N)nc3cccnc3c2n1CCNC(=O)c1ccc([N+](=O)[O-])o1 = +
CCCCc1nc2c(N)nc3cccnc3c2n1CCN = +
CCCCc1nc2c(N)nc3cccnc3c2n1CCCCNC(=O)COCc1ccccc1 = −

Fill in the blank: the reported TNF induction of CCCCOCCCn1c(CCCC)nc2c(N)nc3cccnc3c21 is ____. −

Fill in the blank: the reported TNF induction of CCCCc1nc2c(N)nc3cccnc3c2n1CCNC(=O)c1c(C)noc1C is ____. −

Fill in the blank: the reported TNF induction of CCCCc1nc2c(N)nc3ncccc3c2n1CC(C)C is ____. +

Fill in the blank: the reported TNF induction of CCOCc1nc2c(N)nc3cccnc3c2n1Cc1ccccc1 is ____. +

Fill in the blank: the reported TNF induction of CC(C)Cn1cnc2c(N)nc3c(c21)CCNC3 is ____. −

Fill in the blank: the reported TNF induction of NCCCCn1cnc2c(N)nc3cccnc3c21 is ____. −

Fill in the blank: the reported TNF induction of CCCCc1nc2c(N)nc3cccnc3c2n1CCNC(=O)c1ccc(Br)o1 is ____. +
